system: T1, human VEGF-A residues 27-191 of Accession #AAV38412 (human, UniProt P15692 27-191)
T1 construct: range 27-191
T1 sequence (P15692 other isoform, or with tags, fused parts or gaps limits assumed): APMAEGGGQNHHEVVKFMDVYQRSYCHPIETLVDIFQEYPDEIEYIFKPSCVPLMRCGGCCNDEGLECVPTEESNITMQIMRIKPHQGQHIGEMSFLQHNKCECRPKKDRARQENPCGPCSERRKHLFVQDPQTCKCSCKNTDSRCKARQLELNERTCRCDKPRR
test-method-notes: BIAcore SPR
measurement-name: koff (s⁻¹)

>>> assay_value("N31 Y (anti-VEGF IgG) (antibody, V domains shown, copies: 2 + 2) VH: EVQLVESGGGLVQPGGSLRLSCAASGYTFTYYGMNWVRQAPGKGLEWVGWINTYTGEPTYAADFKRRFTFSLDTSKSTAYLQMNSLRAEDTAVYYCAKYPHYYGSSHWYFDVWGQGTLVTVSS VL: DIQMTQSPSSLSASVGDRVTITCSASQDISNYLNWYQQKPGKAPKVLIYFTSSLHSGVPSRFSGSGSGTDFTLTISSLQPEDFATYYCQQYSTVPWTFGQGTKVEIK")
"1.77e-05"
>>> assay_value("S100a A (anti-VEGF IgG) (antibody, V domains shown, copies: 2 + 2) VH: EVQLVESGGGLVQPGGSLRLSCAASGYTFTNYGMNWVRQAPGKGLEWVGWINTYTGEPTYAADFKRRFTFSLDTSKSTAYLQMNSLRAEDTAVYYCAKYPHYYGASHWYFDVWGQGTLVTVSS VL: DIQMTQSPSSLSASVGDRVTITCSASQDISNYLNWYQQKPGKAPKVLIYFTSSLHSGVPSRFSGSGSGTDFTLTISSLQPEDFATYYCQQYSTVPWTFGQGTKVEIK")
"7.68e-05"
>>> assay_value("93 (antibody, human IgG1, V domains shown) VH: EVQLVESGGGLVQPGGSLRLSCAASGYTFTNYGMNWVRQAPGKGLEWVGWINTYTGEPTYAADFKRRFTFSLDTSKSTAYLQMNSLRAEDTAVYYCAKYPEYYGSSHWYFDVWGQGTLVTVSS VL: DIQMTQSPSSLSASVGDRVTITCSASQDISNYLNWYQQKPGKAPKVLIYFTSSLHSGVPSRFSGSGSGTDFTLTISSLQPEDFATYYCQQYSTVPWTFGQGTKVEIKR")
0.000358
